# Tested on: T. congolense WT
# assay explanation: Drug sensitivity assay, T. congolense WT bloodstream forms
# Assay type: cell-based
# condition parameters: Trypanosoma congolense
# Method: The susceptibilities of trypanosomes to compound 1 were determined as previously described using the resazurin (Alamar Blue) assay. […] Fluorescence was measured in the 96-well plates with a FLUOstar Optima (BMG Labtech, Durham, NC, USA) at wavelengths of 544 nm for excitation, 590 for emission, and a gain of 1250. […]
property name: EC50 (nM)
Hi! Could you send only the number? It should be in nM, unit omitted.

Problem: Identify the measured EC50 of N=C(N)c1ccc(/N=N/Nc2ccc(C(=N)N)cc2)cc1 [Dim., Diminazene aceturate] for T. congolense WT.
Result: 252

Problem: Cool, now Cc1cc(O)ccc1C(=O)OCCCCCCCCCCCCCC[P+](c1ccccc1)(c1ccccc1)c1ccccn1.[Br-]
Result: 41
